Tgt: MAPK14 (human), Q16539 [p38(M109A) Mutant Enzyme Inhibition Assay]
Sequence (Q16539 whole entry, looked up, stated change not applied): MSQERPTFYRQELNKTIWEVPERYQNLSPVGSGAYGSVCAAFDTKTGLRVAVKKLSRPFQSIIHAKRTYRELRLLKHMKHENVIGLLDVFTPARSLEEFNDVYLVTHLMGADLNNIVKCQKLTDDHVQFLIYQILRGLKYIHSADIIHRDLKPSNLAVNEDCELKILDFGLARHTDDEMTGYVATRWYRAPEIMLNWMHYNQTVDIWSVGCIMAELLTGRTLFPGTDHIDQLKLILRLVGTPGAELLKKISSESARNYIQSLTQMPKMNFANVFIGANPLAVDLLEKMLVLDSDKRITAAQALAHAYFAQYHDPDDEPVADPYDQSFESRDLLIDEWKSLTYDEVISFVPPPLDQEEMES
Protocol Text: p38(M109A) Mutant Enzyme Inhibition Assay
pIC50: −log10 of the molar value.
Result Type: pIC50

Compound | pIC50
C[S+]([O-])c1ccc(-c2cc(-c3ccc(F)c(F)c3)c(-c3ccncc3)[nH]2)cc1 (centres undefined) | 7.43

(1) C[C@H](Nc1cc(-c2nc(C3CCCNC3)n(C)c2-c2cccc(C(F)(F)F)c2)ccn1)c1ccccc1 (some centres undefined)
(2) Cn1c(C2CCNCC2)nc(-c2cccc(C(F)(F)F)c2)c1-c1ccncc1
(3) C[S+]([O-])c1ccc(-c2cc(-c3ccc(F)cc3)c(-c3ccncc3)[nH]2)cc1 (centres undefined)
Which order do these items take when sorted by rising pIC50? List them. In your reply, arrange the labels in the requested order.
1, 2, 3

---

// IC50 collected for MAPK14 (human) (UniProt Q16539)
Result Type: IC50 (nM)

(P) C[S+]([O-])c1ccc(-c2cc(-c3ccc(F)c(F)c3)c(-c3ccncc3)[nH]2)cc1 (configuration not stated)
(Q) Cn1c(C2CCNCC2)nc(-c2cccc(C(F)(F)F)c2)c1-c1ccncc1
// which entry reports the smaller IC50, P or Q ? Indicate which entry you chose by stating its label.
Q
